test: Bioavailability study: pharmacokinetics after single intravenous or oral dose in mouse; assay type: in vivo; conditions: male, CD-1, mouse, plasma, iv, 1 mg/kg, IV 1 mg/kg, mean
Quantity: AUC (ng·h/mL)
Answers are plain numbers, in ng·h/mL.

Data request: I would be grateful if you could share the reported AUC for `CO[C@@H]1CC[C@@H](CNc2ccc(S(=O)(=O)NC(=O)c3ccc(N4CCN5CC6=C(c7ccc(Cl)cc7)CC(C)(C)C[C@H]6OCCCOC[C@@H]5C4)cc3N3CCCOc4nc5[nH]ccc5cc43)cc2[N+](=O)[O-])OC1` .
Data returned: 13300

###

Kindly supply the reported EC50 values for the records listed here.
system: Molt-4 cells; experiment: Cell viability counter screen assay (CellTiter-Glo) in Molt-4 cells; type: cell-based; conditions: 24 hours, 10% Human Serum, 50% decrease in cell viability
Numbers only, in nM.

Please review the following examples before continuing.
{"Item Smiles": "CC1(C)CC(c2ccc(Cl)cc2)=C2CN3CCN(c4ccc(C(=O)NS(=O)(=O)c5ccc(NC[C@H]6CC[C@](C)(O)CO6)c([N+](=O)[O-])c5)c(N5CCCOc6nc7[nH]ccc7cc65)c4)C[C@H]3COCCCO[C@@H]2C1", "EC50, nM": 1220}
{"Item Smiles": "CC1(C)CC(c2ccc(Cl)cc2)=C2CN3CCN(c4ccc(C(=O)NS(=O)(=O)c5ccc(NC[C@H]6CC[C@H](O)CO6)c([N+](=O)[O-])c5)c(N5CCCOc6nc7[nH]ccc7cc65)c4)C[C@H]3COCCCO[C@@H]2C1", "EC50, nM": 823}

Turning to the following compound.
Data request: I would be grateful if you could share the reported EC50 for `CO[C@@H]1CC[C@@H](CNc2ccc(S(=O)(=O)NC(=O)c3ccc(N4CCN5CC6=C(c7ccc(Cl)cc7)CC(C)(C)C[C@H]6OCCCOC[C@@H]5C4)cc3N3CCCOc4nc5[nH]ccc5cc43)cc2[N+](=O)[O-])OC1` .
Data returned: 1280
